system: NCI-N87; experiment: Cell viability assay (Cell-Titer GLO); type: cell-based; conditions: Homo sapiens; NCI-N87^c; Gastric cancer; p53 null or mutant cancer cell lines; 48 hrs; read-out: Anti-proliferative EC50

| molecule | assaySystem | EC50 |
| --- | --- | --- |
| Nc1ccc(-c2nc3ccccc3c3[nH]c4ccccc4c23)cc1 [Z0933M] | NCI-N87 | > 30 µM |

* * *

system: LNCaP; test: Cell viability assay (Cell-Titer GLO); type: cell-based; conditions: Homo sapiens, Prostate cancer, 48 hrs, read-out: Anti-proliferative EC50

| compound | EC50 [nM] |
| --- | --- |
| Nc1ccc(-c2nc3ccccc3c3[nH]c4ccccc4c23)cc1 [Z0933M] | 880 |

* * *

system: K562; experiment: Cell viability assay (Cell-Titer GLO); type: cell-based; conditions: Homo sapiens, Leukemia, 48 hrs, read-out: Anti-proliferative EC50
pEC50: −log10 of the molar value.

| compound | pEC50 |
| --- | --- |
| Nc1ccc(-c2nc3ccccc3c3[nH]c4ccccc4c23)cc1 [Z0933M] | 6.13 |

* * *

biological target: Skp1 (F101W_V123T) (Homo sapiens, UniProt P63208, F101W/V123T); construct: His6; test: SPRi assay, Skp1 mutant
measuredQuantity: Kd (nM)

| molecule | measuredQuantity | reportedResult |
| --- | --- | --- |
| Nc1ccc(-c2nc3ccccc3c3[nH]c4ccccc4c23)cc1 [Z0933M] | Kd | 336 |

* * *

target: Skp1-ΔSkp2^F−box-peptide interaction (Homo sapiens, UniProt P63208); construct: recombinantly purify intact (Skp1^WT) and truncate (ΔSkp1^1−140; lacking H8-helix) forms of Skp1; His6; made in house; host or cells: Escherichia coli BL21 (DE3); experiment: FP-based in vitro competition assay; format: binding; conditions: calculated from IC50 with Ki calculator
Sequence (P63208 whole entry, stated change not applied, the tested form may be a part): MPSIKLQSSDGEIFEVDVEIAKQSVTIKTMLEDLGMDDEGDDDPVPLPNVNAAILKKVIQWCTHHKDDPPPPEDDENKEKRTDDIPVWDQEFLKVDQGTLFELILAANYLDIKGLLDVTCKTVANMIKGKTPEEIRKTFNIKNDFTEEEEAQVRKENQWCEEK
pKi: −log10 of the molar value.

| molecule | pKi |
| --- | --- |
| Nc1ccc(-c2nc3ccccc3c3[nH]c4ccccc4c23)cc1 [Z0933M] | 6.64 |

* * *

system: Hela; assay: Cell viability assay (Cell-Titer GLO); assay type: cell-based; settings: Homo sapiens, Cervical cancer, 48 hrs, read-out: Anti-proliferative EC50
pEC50: −log10 of the molar value.

| compound | pEC50 |
| --- | --- |
| Nc1ccc(-c2nc3ccccc3c3[nH]c4ccccc4c23)cc1 [Z0933M] | 6.44 |

* * *

target: Skp1 (V123D) (Homo sapiens, UniProt P63208, V123D); construct: His6; experiment: SPRi assay, Skp1 mutant
Sequence (P63208 whole entry V123D): as the sequence (P63208 whole entry, stated change not applied, the tested form may be a part) above, with V123D counted along it
pKd: −log10 of the molar value.

| compound | pKd |
| --- | --- |
| Nc1ccc(-c2nc3ccccc3c3[nH]c4ccccc4c23)cc1 [Z0933M] | 5.90 |

* * *

target: Skp1-ΔSkp2^F−box-peptide interaction (Homo sapiens); construct: recombinantly purify intact (Skp1^WT) and truncate (ΔSkp1^1−140; lacking H8-helix) forms of Skp1; His6; made in house; host or cells: Escherichia coli BL21 (DE3); assay: FP-based in vitro competition assay; format: binding; settings: calculated from IC50 with Ki calculator; figure
measuredQuantity: Ki

| compound | measuredQuantity | reportedResult |
| --- | --- | --- |
| Nc1ccc(-c2nc3ccccc3c3[nH]c4ccccc4c23)cc1 [Z0933M] | Ki | ~231 nM |
